Attribution: patent US7202265B2

target: EGFR (Homo sapiens); construct: Add 7 ug A431 cell lysate per well (EGFR source); endogenous in cells; host or cells: A431 cells (lysate); test: EGFR ELISA assay (in vitro kinase activity, A431 cell lysate); type: biochemical; design: concentration or dose not given beside the values
Sequence (P00533 25-1210): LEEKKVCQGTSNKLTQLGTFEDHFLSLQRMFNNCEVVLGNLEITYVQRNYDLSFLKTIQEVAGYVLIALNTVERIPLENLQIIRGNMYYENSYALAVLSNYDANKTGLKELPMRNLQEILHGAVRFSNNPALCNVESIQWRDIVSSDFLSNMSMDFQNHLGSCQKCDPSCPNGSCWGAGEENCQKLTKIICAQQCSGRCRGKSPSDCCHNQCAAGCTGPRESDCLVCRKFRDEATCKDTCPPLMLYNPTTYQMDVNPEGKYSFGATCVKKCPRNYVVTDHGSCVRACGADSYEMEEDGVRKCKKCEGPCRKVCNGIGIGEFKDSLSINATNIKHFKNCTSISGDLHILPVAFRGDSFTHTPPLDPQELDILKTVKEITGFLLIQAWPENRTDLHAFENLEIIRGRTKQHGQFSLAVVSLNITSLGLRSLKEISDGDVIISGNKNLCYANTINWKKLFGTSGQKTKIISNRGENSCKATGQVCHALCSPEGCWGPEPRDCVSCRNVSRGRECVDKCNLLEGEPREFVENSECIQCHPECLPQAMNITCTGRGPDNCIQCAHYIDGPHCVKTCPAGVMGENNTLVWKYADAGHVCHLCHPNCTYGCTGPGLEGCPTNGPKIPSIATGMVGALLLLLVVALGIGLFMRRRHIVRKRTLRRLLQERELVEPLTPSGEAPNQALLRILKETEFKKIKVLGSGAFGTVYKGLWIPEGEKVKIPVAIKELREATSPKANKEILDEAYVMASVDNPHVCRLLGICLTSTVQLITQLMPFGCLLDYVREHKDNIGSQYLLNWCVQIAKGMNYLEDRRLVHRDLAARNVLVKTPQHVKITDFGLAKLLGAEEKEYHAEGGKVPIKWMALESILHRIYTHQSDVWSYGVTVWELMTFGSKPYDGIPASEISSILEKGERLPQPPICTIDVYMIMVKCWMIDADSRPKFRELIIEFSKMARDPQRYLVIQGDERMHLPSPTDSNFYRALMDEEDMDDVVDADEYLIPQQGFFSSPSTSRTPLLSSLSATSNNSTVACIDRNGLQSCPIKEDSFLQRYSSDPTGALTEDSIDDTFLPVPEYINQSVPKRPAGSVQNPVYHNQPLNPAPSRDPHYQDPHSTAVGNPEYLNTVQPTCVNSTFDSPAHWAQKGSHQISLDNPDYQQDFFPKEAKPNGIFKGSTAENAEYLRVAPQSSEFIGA
Listed below: Biochem EGFR % Inhibition values for each entry.
Enter your answer as a number in %; do not include the unit.

Record excerpt, results attached:
O=C1Nc2ccc(I)cc2C1=Cc1csc([N+](=O)[O-])c1; 7.8
O=C1Nc2ccc(I)cc2C1=Cc1ccc2c(c1)Cc1ccccc1-2; 38.1
O=C1Nc2ccc(I)cc2C1=Cc1ccc([N+](=O)[O-])c(O)c1; 50.2
Cc1ccc(C=C2C(=O)Nc3ccc(I)cc32)o1; 76.9
Cc1cc(C=C2C(=O)Nc3ccc(I)cc32)sc1C; 79.3
CCOC(=O)CCc1c(C(=O)OCC)[nH]c(C=C2C(=O)Nc3ccc(I)cc32)c1CC(=O)OCC; 56.3
Cn1cc(Cl)c(C=C2C(=O)Nc3ccc(I)cc32)n1; 38.9
CN(C)c1ccc(C=C2C(=O)Nc3ccc(I)cc32)c2ccccc12; 34.9
Cc1cc(C=C2C(=O)Nc3ccc(I)cc32)cc(C)c1O; 6.2
O=C1Nc2ccc(I)cc2C1=Cc1cc([N+](=O)[O-])cc(CCl)c1O; 71.5

Ask: Look up Biochem EGFR % Inhibition for this compound: `CNS(=O)(=O)c1ccc2c(c1)C(=Cc1ccc(F)cc1C(F)(F)F)C(=O)N2`
Result: −11.1
